The reported numbers originate from patent US20260234115A1.

Reported Organ Mean Total Flux Heart values for the following molecules.
test system: mouse organs; test: In vivo activity screening in mice: organ mean total flux (p/s) of luciferase activity after injection of F2 LNP pools (Table 6, FIG. 7A-7C); conditions: Mouse 14, dose 0.5 mg/kg, luciferase mRNA
Marks after values point to notes of the source that are not given here.
quantityName: Organ Mean Total Flux Heart

1) CCCCC/C=C\CCOC(=O)CCCCCC(=O)OCC(COC(=O)CCCCCC(=O)OCC/C=C\CCCCC)(COC(=O)CCCCCC(=O)OCC/C=C\CCCCC)COC(=O)CCC(CCCCCC)OC(=O)NCCN1CCCC1 (stereo not shown)    0.9 p/s (×10^6)
2) CCCCC/C=C\CCOC(=O)CCCCCC(=O)OCC(COC(=O)CCCCCC(=O)OCC/C=C\CCCCC)(COC(=O)CCC(CCCCCC)OC(=O)NCCN1CCCC1)COC(=O)CC12CC3CC(CC(C3)C1)C2 (stereo not shown)    2.2 p/s (×10^6)
3) CCCCC/C=C\C/C=C\CCCCCCCCC(CCCCCCCC/C=C\C/C=C\CCCCC)OC(=O)CCCN(C)C [MC3, reference compound]    4.4 p/s (×10^6)
4) CCCCC/C=C\CCOC(=O)CCCCCC(=O)OCC(COC(=O)CCCCC)(COC(=O)CCCCCC(=O)OCC/C=C\CCCCC)COC(=O)CCC(CCCCCC)OC(=O)NCCN1CCCC1 (stereo not shown)    2.5 p/s (×10^6)
5) CCCCC/C=C\CCOC(=O)CCCCC(=O)OCC(COC(=O)CCCCC(=O)OCC/C=C\CCCCC)(COC(=O)CCC(CCCC)CCOC(=O)NCCN1CCCC1)COC(=O)CC12CC3CC(CC(C3)C1)C2 (stereo not shown)    1.0 p/s (×10^6)
6) CCCCC/C=C\CCOC(=O)CCCCCCC(=O)OCC(COC(=O)CCCCCCC(=O)OCC/C=C\CCCCC)(COC(=O)CCCCCCC(=O)OCC/C=C\CCCCC)COC(=O)CCC(CCCCCC)OC(=O)NCCN1CCCC1 (stereo not shown)    2.8 p/s (×10^6)
7) CCCCC/C=C\CCOC(=O)CCCCC(=O)OCC(COC(=O)CCCCC(=O)OCC/C=C\CCCCC)(COC(=O)CCC(CCCCCC)OC(=O)NCCN1CCCC1)COC(=O)CC12CC3CC(CC(C3)C1)C2 (stereo not shown)    2.0 p/s (×10^6)
